All values here come from PubChem BioAssay (NCI).

System: OVCAR-5 ovarian
ASSAY_METHOD_TEXT: NCI tumour cell line growth inhibition, 48 h
*1 amine or outer side, *2 acyl side, *3 side chain or, on linkers, in order; H or OH if unused. Where a SMILES comes first, the peptide text is derived from it. [ ]: non-standard residue; d: D form. ξ: configuration not given here. Ile(3ξ) = CCC(C)[C@H](N)C(=O)O; X33 = C=CCC(O[*:1])C(=O)[*:2]; NMeV = CN[C@H](C(=O)O)C(C)C; NMeA = CN[C@@H](C)C(=O)O; βAla = NCCC(=O)O
ASSAY_METRIC: TGI

Illustrative cases are given below, each with its answer.
- COMPOUND: "Cc1c([C@H](C(Cl)Cl)[C@H](O)[C@H]2C[C@H](C)C(=O)O2)ccc2c1C(=O)[C@H]1[C@H]2C[C@@H](Br)[C@@]23O[C@@H](CO[C@H]2O)CC13C (stereo partly drawn)"
  TESTED_SYSTEM: "OVCAR-5 ovarian"
  ENDPOINT_VALUE: "> 50 µM"
- COMPOUND: "C=CCC1OC(=O)CCNC(=O)[C@H](C)N(C)C(=O)[C@H](C(C)C)N(C)C(=O)[C@H](C(C)CC)NC(=O)[C@@H]2CCCN2C1=O (stereo partly drawn) (cyclo([Ile(3ξ)][NMeV][NMeA][βAla][X33]P))"
  TESTED_SYSTEM: "OVCAR-5 ovarian"
  ENDPOINT_VALUE: "> 100 µM"
- COMPOUND: "O=C1C=CC(=O)c2c(O)c(N3CCN(c4ccccn4)CC3)c(Cl)c(O)c21"
  TESTED_SYSTEM: "OVCAR-5 ovarian"
  ENDPOINT_VALUE: "17.9 µM"
- COMPOUND: "O=Cc1c(O)ccc2ccc(O)c(-c3c(O)ccc4ccc(O)cc34)c12"
  TESTED_SYSTEM: "OVCAR-5 ovarian"
  ENDPOINT_VALUE: "> 100 µM"
- COMPOUND: "CC(C)/C(Cl)=N\\OC(=O)Nc1ccc(F)cc1"
  TESTED_SYSTEM: "OVCAR-5 ovarian"
  ENDPOINT_VALUE: "30.4 µM"
- COMPOUND: "CCC1CC(C)C(O)/C=C/C=C/CC(C)OC(=O)CC(O)C(OC)C1OC1OC(C)CC(O)(C(C)=O)C1O (stereo not drawn)"
  TESTED_SYSTEM: "OVCAR-5 ovarian"
  ENDPOINT_VALUE: "> 100 µM"

Which value of TGI has been reported for CCN(C(=N)C#N)c1ccccc1 in the records? > 100 µM

Which value of TGI has been reported for O=C(Nc1c(Cl)cccc1Cl)c1c(Cl)c(Cl)c(Cl)c(Cl)c1-c1nc2ccccc2[nH]1 in the records? > 100 µM
